- method-notes: chemical genetic growth profiling, strain panel (AID 1159580);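 note: tested at 20 µM; growth read once vehicle control cultures reached saturation at 30 °C; 1 = growth at the plate median or of vehicle wells; lower values mean less growth of the strain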
- condition-description: S. cerevisiae deletion strains, growth OD, locus YKR026C, strain gcn3, hits give low values
The campaign covered roughly 5,500 compounds. About 2,000 (36%) were called active. About 18% were inconclusive and are not listed. The list shows a part of the results.
Listed compounds paired with reported normalized growth
property-label: normalized growth

1) COC(=O)Nc1nc2ccc(S(=O)c3ccccc3)cc2[nH]1 (centres undefined)    0.979 (inactive)
2) CC(C)(C#N)O[C@@H]1O[C@H](CO)[C@@H](O)[C@H](O)[C@H]1O    0.997 (inactive)
3) COc1cc(N)c(Cl)cc1C(=O)NC1CCN(Cc2ccccc2)CC1    0.988 (inactive)
4) CCCCCCCCCCCCCCC(C(=O)O)C(O)(CC(=O)OC)C(=O)O (centres undefined)    0.999 (inactive)
5) O=c1[nH]cc(F)c(=O)[nH]1    0.83 (active)
6) Cc1cn([C@H]2C[C@H](N=[N+]=[N-])[C@@H](CO)O2)c(=O)[nH]c1=O    0.988 (inactive)
7) COc1c(-c2coc3cc4c(cc3c2=O)CC(OC(C)=O)C(C)(C)O4)ccc2c1C=CC(C)(C)O2 (centres undefined)    1.04 (inactive)
8) CC(=O)O[C@@H]1CC[C@@]2(C)C(CC[C@]3(C)C2CC=C2C4CC(C)(C)CC[C@]4(C(=O)O)CC[C@]23C)C1(C)C (some centres undefined)    1.01 (inactive)
9) C[C@@H]1OC(O[C@H]2C(O[C@H]3CC[C@@]4(C)C(CC[C@]5(C)C4CC=C4C6CC(C)(C)CC[C@]6(C(=O)O)CC[C@]45C)[C@]3(C)CO)OC[C@H](O)[C@@H]2O)[C@H](O)[C@H](O)[C@H]1O (some centres undefined)    0.0618 (active)
10) OC(CCN1CCCCC1)(c1ccccc1)C1CCCCC1 (centres undefined)    0.971 (inactive)
11) CC1(C)CC(O)C2(C)CCC3(C)C(=CCC4C5(C)CCC(O)C(C)(CO)C5CCC43C)C2C1 (centres undefined)    1.04 (inactive)
12) COC(=O)Nc1nc2ccc(C(=O)c3ccccc3)cc2[nH]1    0.956 (inactive)
13) Nc1ccc(S(=O)(=O)Nc2ccnn2-c2ccccc2)cc1    0.965 (inactive)
14) O=C(O)CC(O)(CC(=O)O)C(=O)O    1.01 (inactive)
15) CC(C)=CCCC1(C)C=Cc2c(O)c3c(c(CC=C(C)C)c2O1)OC12C(=CCCC1C(C)(C)O[C@@]2(C/C=C(\C)C(=O)O)C(=O)O)C3=O (some centres undefined)    1 (inactive)
16) CCN1C[C@]2(OC(=O)c3ccccc3NC(C)=O)CCC(OC)[C@]34C1[C@H](CC23)[C@@]1(O)CC(OC)[C@H]2CC4C1(O)[C@H]2OC (some centres undefined)    0.975 (inactive)
17) OC(CCN1CCCC1)(c1ccccc1)C1CCCCC1 (centres undefined)    0.986 (inactive)
18) Nc1ccc(S(=O)(=O)Nc2cnc3ccccc3n2)cc1    1.02 (inactive)
19) COC(=O)Nc1nc2ccc(Sc3ccccc3)cc2[nH]1    0.98 (inactive)
20) C[C@@H]1CC[C@H]2[C@@H](C)C(O)O[C@@H]3O[C@@]4(C)CC[C@@H]1[C@]32OO4 (some centres undefined)    0.407 (active)
21) CC(CC(=O)C(O)C(C)(C)O)C1C(=O)CC2(C)C3=CCC4C(C)(C)C(OC5OCC(O)C(O)C5O)CCC45CC35C(O)CC12C (centres undefined)    1.02 (inactive)
22) O=C1c2c(O)cccc2Cc2cccc(O)c21    0.991 (inactive)
23) CC(=O)O[C@H]1CC[C@@]2(C)C(CC[C@]3(C)C2CC=C2C4CC(C)(C)CC[C@]4(C)CC[C@]23C)C1(C)C (some centres undefined)    0.991 (inactive)
24) CC1(C)CC[C@]2(C(=O)O)CC[C@]3(C)C(=CCC4[C@@]5(C)CC[C@H](O)[C@@](C)(CO)C5CC[C@]43C)C2C1 (some centres undefined)    1.03 (inactive)
